Reference for the values: ChEMBL document CHEMBL1926661

Assay: Inhibition of trypsin
Binary label based on Ki with cut-off 100 µM: below gives label 1, not below gives label 0.

Example cases with answers are listed next.
{"columns": ["molecule", "qualitativeLabel"],
 "data": [
  ["COC(=O)C(Cc1cccc(CN)c1)NC(C)=O (racemic)", "label 0"],
  ["CC[C@H](C)[C@H]1NC(=O)C[C@H](CCCNC(=N)N)NC(=O)[C@@H]2CCCN2C(=O)[C@@H](NC(C)=O)CNC(=O)/C=C/[C@H](Cc2ccc(O)cc2)NC1=O", "label 1"],
  ["CC[C@H](C)[C@H]1NC(=O)C[C@H](Cc2cccc(CN)c2)NC(=O)[C@@H]2CCCN2C(=O)[C@@H](NC(=O)CCCCCN)CNC(=O)/C=C/[C@H](Cc2ccc(O)cc2)NC1=O", "label 1"],
  ["CC[C@H](C)[C@H]1NC(=O)C[C@H](CCCNC(=N)N)NC(=O)[C@@H]2CCCN2C(=O)[C@@H](NC(=O)CCCCCN)CNC(=O)/C=C/[C@H](Cc2ccc(O)cc2)NC1=O", "label 1"]
]}

As a next step, examine the molecule that follows.
stdin: Please determine if CC[C@H](C)[C@H]1NC(=O)C[C@H](CCCCN)NC(=O)[C@@H]2CCCN2C(=O)[C@@H](NC(C)=O)CNC(=O)/C=C/[C@H](Cc2ccc(O)cc2)NC1=O is below 100 µM in terms of Ki.
stdout: label 0
